ASSAYED SYSTEM: C3b (biotinylated, captured site-specifically on a streptavidin chip) (UniProt P01024)
METHOD: SPR (Biacore 3000), single-cycle kinetics, biotinylated C3b on streptavidin chip, peptide as analyte, 1:1 Langmuir fit
Bridge positions count the residues as written; N and C are the ends. Square brackets hold non-standard residues; d marks the D form. Ends that are not written are not given here. Trp(1-Me) = Cn1cc(C[C@H](N)C(=O)O)c2ccccc21; NMeI = CC[C@H](C)[C@H](NC)C(=O)O; Sar = CNCC(=O)O
ASSAY METRIC: kon
Give me the value, and tack the unit on after it.

input: Please supply the value of reported kon for the item FICVWQDWGAHRCI (mPhe (N-methyl-Phe) at Xaa0; Trp(Me) at position 4; Sar at position 8; mIle at position 13; C-terminal -NH2; cyclic via Cys2-Cys12 disulfide (compstatin position numbering)) [Peptide 10: mPhe-Ile-[Cys-Val-Trp(Me)-Gln-Asp-Trp-Sar-Ala-His-Arg-Cys]-mIle-NH2]
output: 1.6e+06 M⁻¹ s⁻¹

input: Please supply the value of reported kon for the item FICV[Trp(1-Me)]QDW[Sar]AHRC[NMeI]-NH2 (disulfide 3-13; N-terminus assumed; SMILES CC[C@H](C)[C@H](NC(=O)[C@@H](N)Cc1ccccc1)C(=O)N[C@H]1CSSC[C@@H](C(=O)N(C)[C@H](C(N)=O)[C@@H](C)CC)NC(=O)[C@H](CCCNC(=N)N)NC(=O)[C@H](Cc2c[nH]cn2)NC(=O)[C@H](C)NC(=O)CN(C)C(=O)[C@H](Cc2c[nH]c3ccccc23)NC(=O)[C@H](CC(=O)O)NC(=O)[C@H](CCC(N)=O)NC(=O)[C@H](Cc2cn(C)c3ccccc23)NC(=O)[C@H](C(C)C)NC1=O) [Peptide 5: Phe-Ile-[Cys-Val-Trp(Me)-Gln-Asp-Trp-Sar-Ala-His-Arg-Cys]-mIle-NH2]
output: 2.1e+06 M⁻¹ s⁻¹

input: Please supply the value of reported kon for the item GICV[Trp(1-Me)]QDW[Sar]AHRC[NMeI]-NH2 (disulfide 3-13; N-terminus assumed; SMILES CC[C@H](C)[C@H](NC(=O)CN)C(=O)N[C@H]1CSSC[C@@H](C(=O)N(C)[C@H](C(N)=O)[C@@H](C)CC)NC(=O)[C@H](CCCNC(=N)N)NC(=O)[C@H](Cc2c[nH]cn2)NC(=O)[C@H](C)NC(=O)CN(C)C(=O)[C@H](Cc2c[nH]c3ccccc23)NC(=O)[C@H](CC(=O)O)NC(=O)[C@H](CCC(N)=O)NC(=O)[C@H](Cc2cn(C)c3ccccc23)NC(=O)[C@H](C(C)C)NC1=O) [Peptide 2: Gly-Ile-[Cys-Val-Trp(Me)-Gln-Asp-Trp-Sar-Ala-His-Arg-Cys]-mIle-NH2]
output: 1.2e+06 M⁻¹ s⁻¹

input: Please supply the value of reported kon for the item Ac-WCV[Trp(1-Me)]QDW[Sar]AHRC[NMeI]-NH2 (disulfide 2-12; SMILES CC[C@H](C)[C@@H](C(N)=O)N(C)C(=O)[C@@H]1CSSC[C@H](NC(=O)[C@H](Cc2c[nH]c3ccccc23)NC(C)=O)C(=O)N[C@@H](C(C)C)C(=O)N[C@@H](Cc2cn(C)c3ccccc23)C(=O)N[C@@H](CCC(N)=O)C(=O)N[C@@H](CC(=O)O)C(=O)N[C@@H](Cc2c[nH]c3ccccc23)C(=O)N(C)CC(=O)N[C@@H](C)C(=O)N[C@@H](Cc2c[nH]cn2)C(=O)N[C@@H](CCCNC(=N)N)C(=O)N1) [Peptide 19: Ac-Trp-[Cys-Val-Trp(Me)-Gln-Asp-Trp-Sar-Ala-His-Arg-Cys]-mIle-NH2]
output: 3.8e+06 M⁻¹ s⁻¹

Data origin: patent US20210032291A1
